# experimental system: T1, recombinant human CD123-Fc (human, UniProt P26951 19-305)
# T1 construct: not shown: Fc part of CD123-Fc
# T1 sequence: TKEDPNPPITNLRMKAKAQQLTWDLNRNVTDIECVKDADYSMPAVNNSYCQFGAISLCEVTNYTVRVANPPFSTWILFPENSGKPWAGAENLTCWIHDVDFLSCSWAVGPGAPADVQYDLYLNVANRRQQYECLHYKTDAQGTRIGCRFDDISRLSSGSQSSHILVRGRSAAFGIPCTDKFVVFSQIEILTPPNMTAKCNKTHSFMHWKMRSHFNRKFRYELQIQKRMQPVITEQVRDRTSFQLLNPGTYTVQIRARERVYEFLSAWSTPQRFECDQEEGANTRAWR
# method: phage ELISA, captured CD123-Fc
Below, each entry is listed with its recorded ELISA_avg.
measurement name: ELISA_avg (ratio A450 target/IgG1-Fc)

INSERT INTO assay_data (binder, reported_result) VALUES
  ('SEQ ID NO: 443 (designed binder, D domain, on phage) MGSWGYFKDDLAWIKGELEALGGSEAELAEFEWFIAVFEEDLQVYKGKGNPEVEALRKEAAAIRDELQAYRHN', 4.5),
  ('SEQ ID NO: 486 (designed binder, D domain, on phage) MGSWSFFKDDLAEIKYFLEALGGSEAELAMFEQTIAEFEYDLQDYKGKGNPEVEALRKEAAAIRDELQAYRHN', 10.1),
  ('SEQ ID NO: 461 (designed binder, D domain, on phage) MGSWVTFKDELADIKDFLEALGGSEAELAFFEVDIAEFEAELQFYKGKGNPEVEALRKEAAAIRDELQAYRHN', 7.6);
